Tested on: SF-539 CNS
Assay: NCI tumour cell line growth inhibition, 48 h
measurement-kind: TGI

Response field TGI (SF-539 CNS) for item CCOC(=O)/N=c1\ssc(Cl)c1Cl : 8.97 µM

Response field TGI (SF-539 CNS) for item O=C1Nc2ccc(Br)cc2C1=Nc1ccc(Cl)cc1 : 19.4 µM

Response field TGI (SF-539 CNS) for item Cc1cc2c(-c3nc4ccccn4c3NC34CC5CC(CC(C5)C3)C4)c(O)c(O)cc2c(O)c1-c1c(C)cc2c(-c3nc4ccccn4c3NC34CC5CC(CC(C5)C3)C4)c(O)c(O)cc2c1O : 2.98 µM

Response field TGI (SF-539 CNS) for item CCC1(Cl)C(=O)NC(=O)N(C2CC(O)C(CO)O2)C1N=[N+]=[N-] (stereo not given) : > 100 µM

Response field TGI (SF-539 CNS) for item CCOc1ccccc1NC(=O)CCC(=O)NN : > 100 µM

Response field TGI (SF-539 CNS) for item Nc1ccc2c(SCC(=O)Nc3ccccc3-c3ccccc3NC(=O)CSc3c4ccccc4nc4cc(N)ccc34)c3ccccc3nc2c1 : 64.8 µM

Response field TGI (SF-539 CNS) for item CCCC/C=C1\CCC(CN2CCCC2)C1=O (stereo not given) : 29.8 µM

Response field TGI (SF-539 CNS) for item CN1CCN(CCCOc2ccc3ncnc(Nc4ccc(Oc5cccc(F)c5)c(Cl)c4)c3c2)CC1 : 2.93 µM

Response field TGI (SF-539 CNS) for item CCCCCCCCCCCCCCCCCCNC(=O)[C@H]1CSC(c2ccc(F)c(OC)c2)N1 (stereo not given in full) : 6.26 µM

Response field TGI (SF-539 CNS) for item Cc1cc(N(CCC#N)CCC#N)ccc1/C=C/C(=O)Nc1ccccc1Cl : > 100 µM

----------
Test system: CAKI-1 renal
Assay: NCI tumour cell line growth inhibition, 48 h
Item-by-item account of TGI

[
  {
    "molecule": "COc1ccc(-c2nn3ncccc3c2-c2ccnc(Nc3cccc(C(F)(F)F)c3)n2)cc1",
    "system-tested": "CAKI-1 renal",
    "result": "> 25 µM"
  },
  {
    "molecule": "CC1CCc2sc3[nH]c(=S)n(C)c(=O)c3c2C1 (stereo not given)",
    "system-tested": "CAKI-1 renal",
    "result": "> 100 µM"
  },
  {
    "molecule": "COC(=O)C1=C(C(=O)OC)C(C(=O)OC)C(C(=O)OC)C(C(=O)OC)(C(=O)OC)C(C(=O)OC)=C1C(=O)OC (stereo not given)",
    "system-tested": "CAKI-1 renal",
    "result": "36.7 µM"
  },
  {
    "molecule": "COc1cc(-c2nn3c(=O)n(-c4ccc(Cl)cc4)c(=O)nc3s2)cc(OC)c1OC",
    "system-tested": "CAKI-1 renal",
    "result": "> 62.2 µM"
  }
]

Next:
Quick note, TGI for CO[C@H](C)[C@](O)(C(=O)OCC1=CCN2CC[C@@H](O)[C@H]12)C(C)C landed at > 100 µM

----------
Test system: PC-3 prostate
Experiment: NCI tumour cell line growth inhibition, 48 h
Item-by-item account of GI50

Solved cases (3 shown):
[
  {
    "compound": "C#CCn1cc(C=C2C(=O)NC(=S)NC2=O)c2cc(Cl)ccc21",
    "result": "2570 nM"
  },
  {
    "compound": "COc1cccc(C2CC(=O)Nc3cc4c(cc32)CCC4)c1OC (stereo not given)",
    "result": "3410 nM"
  },
  {
    "compound": "NCCNc1nc2ccccc2c2c(=O)c3cc(F)cc(Cl)c3sc12",
    "result": "1420 nM"
  }
]

Response field GI50 (PC-3 prostate) for item CC(=O)Nc1ccc2c(c1)CN1C(=O)c3ccccc3C1=N2 : > 100000 nM

Response field GI50 (PC-3 prostate) for item CCOC(=O)C(=Cc1c(-c2ccccc2)[nH]c2ccccc12)C(=O)OCC : 3190 nM

Response field GI50 (PC-3 prostate) for item O=C(Nc1cccc(Cl)c1)c1cc(Cl)ccc1O : 2600 nM

Response field GI50 (PC-3 prostate) for item Cc1ccc(NCCNCC(O)CO)c2c(=O)c3ccccc3sc12 (stereo not given) : 1580 nM

Response field GI50 (PC-3 prostate) for item COc1ccccc1-c1nccc(COc2ccccc2C[C@@H](Oc2ncnc3sc(-c4ccc(F)cc4)c(-c4ccc(OCCN5CCN(C)CC5)c(Cl)c4C)c23)C(=O)O)n1 : 1960 nM

Response field GI50 (PC-3 prostate) for item Fc1ccc(-c2cc(-c3cn[nH]c3-c3ccccn3)ccn2)cc1 : > 25000 nM

Response field GI50 (PC-3 prostate) for item COc1ccc(-c2nn(-c3cccc(Cl)c3)cc2-c2cc(-c3cccs3)no2)cc1 : 3200 nM

----------
Test system: HL-60(TB) leukemia
Assay: NCI tumour cell line growth inhibition, 48 h
Item-by-item account of TGI
Write the number in µM without appending the unit.

Response field TGI (HL-60(TB) leukemia) for item COc1ccc(CCn2ccc(=O)c(O)c2C)cc1OC : 81.9

----------
System: CAKI-1 renal
Test: NCI tumour cell line growth inhibition, 48 h
measurement-kind: GI50

[
  {
    "compound": "COc1ccc(CNC(=O)c2ccc(-c3cc(-c4nnc(C)o4)ccc3C)cc2)cc1",
    "result": "19.5 µM"
  },
  {
    "compound": "COc1cc(-c2nn3c(=O)n(-c4ccc(Cl)cc4)c(=O)nc3s2)cc(OC)c1OC",
    "result": "> 50 µM"
  }
]

Quick note, GI50 for COc1ccc(-c2nn(-c3cccc(Cl)c3)cc2-c2cc(-c3cccs3)no2)cc1 landed at 2.05 µM

Quick note, GI50 for COc1ccc(-c2cn(-c3cc(OC)c(OC)c(OC)c3)c(=O)n2-c2ccccc2)cc1 landed at > 100 µM

Quick note, GI50 for Cc1ccc(S(=O)c2ccc([N+](=O)[O-])c3nonc23)cc1 (stereo not given) landed at 3.12 µM

----------
Item-by-item account of TGI
Tested on: BT-549 breast
Experiment: NCI tumour cell line growth inhibition, 48 h
Write the number in µM without appending the unit.

[
  {
    "compound": "Cc1ccc(NCCNCC(O)CO)c2c(=O)c3ccccc3sc12 (stereo not given)",
    "TGI [µM]": 10.5
  }
]

Quick note, TGI for C#CCn1cc(C=C2C(=O)NC(=S)NC2=O)c2cc(Cl)ccc21 landed at 3.89

----------
Item-by-item account of TGI
Test system: CAKI-1 renal
Assay: NCI tumour cell line growth inhibition, 48 h

[
  {
    "molecule": "CN(C)C(=O)/N=C1\\SC(=Nc2ccccc2)C(=Nc2ccccc2)N1c1ccc([N+](=O)[O-])cc1",
    "result": "> 100 µM"
  },
  {
    "molecule": "CC(=O)OC1Oc2cc(C)c(C)cc2-c2oc(=O)c(-c3ccccc3)cc21 (stereo unspecified)",
    "result": "> 54.1 µM"
  }
]

Response field TGI (CAKI-1 renal) for item O=C(Nc1nc2ccc(F)cc2s1)c1cccnc1Nc1ccc(Cl)cc1Cl : 8.71 µM

Response field TGI (CAKI-1 renal) for item COC(=O)c1ccc2cc(O)ccc2c1 : > 100 µM

Response field TGI (CAKI-1 renal) for item CCOc1cccc(/C=N/NC(=O)Cc2ccc(Nc3ccnc(C(F)(F)F)c3)cc2)c1O : 52.2 µM

Response field TGI (CAKI-1 renal) for item O=C(O)CCSc1ncnc2nc[nH]c12 : > 100 µM

Response field TGI (CAKI-1 renal) for item c1cc2ccc1C1NCCCN1CCN1CCCNC1c1ccc(cc1)C1NCCCN1CCN1CCCNC21 (stereo unspecified) : > 100 µM

Response field TGI (CAKI-1 renal) for item C=C1C[C@@H]2CC[C@@]34CC5O[C@H]6C(O[C@H]7CC[C@H](CC(=O)O[C@@H]8[C@@H](C)[C@@H]9O[C@@H]%10C[C@]%11(C[C@@H]%12O[C@]%13(C[C@H](C)[C@@H]%14O[C@@H]%15CC(C(COC(C)=O)OC(C)=O)O[C@@H]%15C[C@@H]%14O%13)C[C@H](C)[C@@H]%12O%11)O[C@@H]%10C[C@@H]9O[C@H]8CC8O[C@@H](CC[C@@H]1O2)C[C@@H](C)C8(O)CO)O[C@@H]7[C@@H]6O3)[C@H]5O4 (stereo partly specified) : > 1 µM

Response field TGI (CAKI-1 renal) for item CSc1ncnc2c1cnn2Cc1cn(COCC(O)CO)nn1 (stereo unspecified) : > 100 µM

Response field TGI (CAKI-1 renal) for item CCC1(c2ccc(OC)c(OC)c2)CCN2C(=O)C(O)CC21 (stereo unspecified) : > 100 µM

Response field TGI (CAKI-1 renal) for item CC12O[Te]34OC1(C)C(C)(O3)C2(C)O4 : 22.6 µM
